targetOrTestSystem: T1, His-GRIP-PDZ6 (UniProt P97879 672-754)
T1 construct: domain: PDZ 6; also called GRIP fragment containing only the PDZ 6 domain; PDZ domain 6 of GRIP; not shown: His tag
T1 sequence (looked up): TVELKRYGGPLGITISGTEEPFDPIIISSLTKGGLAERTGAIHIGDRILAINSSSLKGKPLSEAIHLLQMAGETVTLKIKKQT
procedureDetails: displacement of ^35S-EphB2 from His-GRIP-PDZ6
pKi: −log10 of the molar value.
resultType: pKi

# binder, resultType, assayValue
records = [
    ("NVYGIESVKI (also called GluR2ct; R2ct) [GluR2 carboxy terminal peptide]", "pKi", 6.81),
]

Hello, the source for this data is patent US20040241754A1, in case you need it.
